Values compiled from patent US20240383958A1.

assay: Proteolysis during production detected using mass spectroscopy; format: physicochemical; conditions: proteolytic stability

MOLECULE: APL-L: Leader-Fc-linker fusion of apelin analogue QRPRLQHKNPMAW (S6Q, G9N, P12A, F13W) (protein) MRAWIFFLLCLAGRALADKTHTSPPSPAPEAAGGPSVFLFPPKPKDTLMISRTPEVTCVVVDVSHEDPEVKFNWYVDGVEVHNAKTKPREEQYNSTYRVVSVLTVLHQDWLNGKEYKCKVSNKALPAPIEKTISKAKGQPREPQVYTLPPSREEMTKNQVNLTCLVKGFYPSDIAVEWESNGQPENNYKTTPPVLDSDGSFFLNSTLTVDKSRWQQGNVFSCSVMHEALHNHYTQKSLSLSPGKGGGGSGGGGSGGGGSQRPRLQHKNPMAW
Proteolysis During Production?: No
//
MOLECULE: APL-A: Monovalent IgG1 Fc fused via GGGGSGGGGSGGGGS linker to wild-type apelin-13 QRPRLSHKGPMPF (protein) MRAWIFFLLCLAGRALADKTHTSPPSPAPEAAGGPSVFLFPPKPKDTLMISRTPEVTCVVVDVSHEDPEVKFNWYVDGVEVHNAKTKPREEQYNSTYRVVSVLTVLHQDWLNGKEYKCKVSNKALPAPIEKTISKAKGQPREPQVYTLPPSREEMTKNQVNLTCLVKGFYPSDIAVEWESNGQPENNYKTTPPVLDSDGSFFLNSTLTVDKSRWQQGNVFSCSVMHEALHNHYTQKSLSLSPGKGGGGSGGGGSGGGGSQRPRLSHKGPMPF
Proteolysis During Production?: Yes
//
MOLECULE: APL-I: Leader-Fc-linker fusion of apelin analogue QRPRLSHKGPAAW (M11A, P12A, F13W) (protein) MRAWIFFLLCLAGRALADKTHTSPPSPAPEAAGGPSVFLFPPKPKDTLMISRTPEVTCVVVDVSHEDPEVKFNWYVDGVEVHNAKTKPREEQYNSTYRVVSVLTVLHQDWLNGKEYKCKVSNKALPAPIEKTISKAKGQPREPQVYTLPPSREEMTKNQVNLTCLVKGFYPSDIAVEWESNGQPENNYKTTPPVLDSDGSFFLNSTLTVDKSRWQQGNVFSCSVMHEALHNHYTQKSLSLSPGKGGGGSGGGGSGGGGSQRPRLSHKGPAAW
Proteolysis During Production?: No
//
MOLECULE: APL-K: Leader-Fc-linker fusion of apelin analogue QRPRLQHKNPMAF (S6Q, G9N, P12A) (protein) MRAWIFFLLCLAGRALADKTHTSPPSPAPEAAGGPSVFLFPPKPKDTLMISRTPEVTCVVVDVSHEDPEVKFNWYVDGVEVHNAKTKPREEQYNSTYRVVSVLTVLHQDWLNGKEYKCKVSNKALPAPIEKTISKAKGQPREPQVYTLPPSREEMTKNQVNLTCLVKGFYPSDIAVEWESNGQPENNYKTTPPVLDSDGSFFLNSTLTVDKSRWQQGNVFSCSVMHEALHNHYTQKSLSLSPGKGGGGSGGGGSGGGGSQRPRLQHKNPMAF
Proteolysis During Production?: No
